Measured koff of individual entries
Molecular target: T1, human NGF (his tag) (human, UniProt P01138 122-241, limits assumed)
T1 construct: Captured on Ni-NTA sensors in the ForteBio Octet assay; also called hNGF; antigen; not shown: his tag
T1 sequence (P01138 122-241 limits assumed): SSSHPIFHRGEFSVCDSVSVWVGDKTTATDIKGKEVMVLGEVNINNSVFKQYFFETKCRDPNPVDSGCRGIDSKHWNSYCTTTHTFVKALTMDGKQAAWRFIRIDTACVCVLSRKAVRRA
Assay: BLI (ForteBio Octet), method of example 4
Please answer using the number first and the unit second.

Solved entries:
>  <binder>
humanized antibody AB5D2 (antibody, V domains shown, Humanized from #2 by CDR transplantation) VH: QVQLVQSGAEVKKPGASVKVSCKASGYTFTDYWMQWVKQRPGQGLEWIGTIYPGDGYTRYIQKFKGRVTMTRDTSTSTVYMELSSLRSEDSAVYYCARRAAYYTMDYWGQGTLVTVSS VL: DIQMTQSPSSLSASVGDRVTITCKASQDVNTAVAWYQQKPGKAPKLLIYWASTRHTGVPDRFTGSGSGTDYTLTISSLQPEDLALYYCQQHYSSPWTFGGGTKVEIT

>  <koff>
7.94e-06 s⁻¹

$$$$
>  <binder>
humanized antibody AB5C3 (antibody, V domains shown, Humanized from #56 by CDR transplantation) VH: QVQLQESGPGLVKPSETLSLTCTVSGFSLTGYGWGWIRQPPGKGLEWIGSIWADGDTYYNPSLKSRVTISVDTSKNQFSLKLSSVTAADTAVYYCARDSYYYGYNFFDVWGQGTMVTVSS VL: DIQMTQSPSSLSASVGDRVTITCQASQDISNYLNWYQQKPGKAPKLLIYYTSNLETGVPSRFSGSGSGTDFTFTISSLQPEDIATYYCQQGNTLPRTFGGGTKVEIK

>  <koff>
9.87e-06 s⁻¹

$$$$

Below: the item to evaluate.
Can you look up the measured koff of humanized antibody AB5D5 (antibody, V domains shown, Humanized from #2 by CDR transplantation) VH: QVQLVQSGAEVKKPGASVKVSCKASGYTFTDYWMHWVKQAPGQGLEWMGIIYPGDGYTSYIQKFQGRVTMTRDTSTSTVYMELSSLRSEDTAVYYCARRAAYYTMDYWGQGTLVTVSS VL: DIQMTQSPSSLSASVGDRVTITCRASQDVNTALAWYQQKPGKAPKLLLYWASRLETGVPSRFSGSGSGTDYTLTISSLQPEDLATYYCQQHYSSPWTFGGGTKVEIT for me?
1.89e-05 s⁻¹
